Assay: Half life in cynomolgus monkey at 1 mg/kg, iv
Type: ADME, organism-based, Macaca fascicularis
Design: dose 1 mg/kg, route intravenous
Conditions: in vivo
quantity.name: half-life (h)
Answers are plain numbers, in h.

Task item: Output measured half-life for this item: Cc1nn(C[C@H](F)CN2C3CCC2CC(OCc2cccc(F)c2)C3)c(=O)n1C (stereo partly specified)
Reply: 1.93

###

Assay: AUC in Sprague-Dawley rat at 1 mg/kg, iv
Format: ADME, organism-based
Parameters: dose 1 mg/kg, route intravenous
Details: plasma
quantity.name: AUC (ng·h/mL)
Numbers only, in ng·h/mL.

Task item: Output measured AUC for this item: Cc1nn(C[C@H](F)CN2C3CCC2CC(OCc2cccc(F)c2)C3)c(=O)n1C (stereo partly specified)
Reply: 310
